species on record: Rattus norvegicus; assay: Open TG-GATES - Regimen: Single; type: toxicity, organism-based, Sprague-Dawley; parameters: regimen Single, gender Male, age 6 weeks; conditions: in vivo, po, 0 mg/kg, 6 h, tissue Blood, route gavage, dose level Control
// Lym lookup, one value per entry
READOUT_KIND: Lym (%)

[
  {
    "MOLECULE": "NNC(=O)c1ccncc1",
    "READOUT_KIND": "Lym",
    "UNIT_SPEC": "%",
    "OBS_VALUE": 80.8
  },
  {
    "MOLECULE": "NC(N)=Nc1nc(CSCCC(N)=NS(N)(=O)=O)cs1",
    "READOUT_KIND": "Lym",
    "UNIT_SPEC": "%",
    "OBS_VALUE": 79.4
  },
  {
    "MOLECULE": "COC1=CC(=O)C[C@@H](C)[C@]12Oc1c(Cl)c(OC)cc(OC)c1C2=O",
    "READOUT_KIND": "Lym",
    "UNIT_SPEC": "%",
    "OBS_VALUE": 79.4
  }
]

---

species on record: Rattus norvegicus; assay: Open TG-GATES - Regimen: Single; format: toxicity, organism-based, Sprague-Dawley; design: regimen Single, gender Male, age 6 weeks; details: in vivo, po, 0 mg/kg, 9 h, tissue Blood, route gavage, dose level Control
READOUT_KIND: Mono

[
  {
    "COMPOUND": "CN(C)CCCN1c2ccccc2CCc2ccc(Cl)cc21",
    "OBS_VALUE": "1.6%"
  },
  {
    "COMPOUND": "CC(C)OC(=O)C(C)(C)Oc1ccc(C(=O)c2ccc(Cl)cc2)cc1 [FENOFIBRATE]",
    "OBS_VALUE": "2.4%"
  },
  {
    "COMPOUND": "CN(C)CCN(Cc1cccs1)c1ccccn1",
    "OBS_VALUE": "1.6%"
  },
  {
    "COMPOUND": "CCOc1ccc(NC(=O)CC(C)O)cc1 (centres undefined)",
    "OBS_VALUE": "2.6%"
  },
  {
    "COMPOUND": "NNC(=O)c1ccncc1",
    "OBS_VALUE": "2%"
  },
  {
    "COMPOUND": "COC1=CC(=O)C[C@@H](C)[C@]12Oc1c(Cl)c(OC)cc(OC)c1C2=O",
    "OBS_VALUE": "2.4%"
  },
  {
    "COMPOUND": "COc1ccc2[nH]c([S+]([O-])Cc3ncc(C)c(OC)c3C)nc2c1 (centres undefined)",
    "OBS_VALUE": "3%"
  },
  {
    "COMPOUND": "CN1C(=O)CN=C(c2ccccc2)c2cc(Cl)ccc21",
    "OBS_VALUE": "5.6%"
  },
  {
    "COMPOUND": "Cc1ccc(C)c(OCCCC(C)(C)C(=O)O)c1",
    "OBS_VALUE": "2.6%"
  }
]
